# Test system: PC-3 prostate
# EXPERIMENT NOTES: NCI tumour cell line growth inhibition, 48 h
Listed here are molecules together with their documented GI50.

MOLECULAR STRING	SYSTEM NAME	GI50
Fc1ccc(-c2c(-c3ccncc3)[nH]c3cccnc23)cc1	PC-3 prostate	> 25 µM
CN1CCN(C(=O)[C@@]2(C)CC[C@]3(C)CC[C@]4(C)C(=CC[C@@H]5[C@@]6(C)CC[C@H](OC(=O)c7cccnc7)C(C)(C)[C@@H]6CC[C@]54C)[C@@H]3C2)CC1	PC-3 prostate	1.61 µM
C#Cc1cccc(Nc2ncnc3ccc(-c4cnc(N)nc4)cc23)c1	PC-3 prostate	1.62 µM

We now examine a further molecule.
Lab request: please report GI50 under test system PC-3 prostate for `CN(CCCCCCCCNc1ccnc2ccccc12)Cc1ccc(-c2ccc(-c3ccc(C#N)cc3)s2)cc1` 0.766 µM
